Quick list: inhibition at 50 µM per entry.
Molecular target: rat GPR14 (U-II receptor) (Rattus norvegicus, UniProt P49684)
Construct: expressed in transfected cells
Sequence (P49684 whole entry): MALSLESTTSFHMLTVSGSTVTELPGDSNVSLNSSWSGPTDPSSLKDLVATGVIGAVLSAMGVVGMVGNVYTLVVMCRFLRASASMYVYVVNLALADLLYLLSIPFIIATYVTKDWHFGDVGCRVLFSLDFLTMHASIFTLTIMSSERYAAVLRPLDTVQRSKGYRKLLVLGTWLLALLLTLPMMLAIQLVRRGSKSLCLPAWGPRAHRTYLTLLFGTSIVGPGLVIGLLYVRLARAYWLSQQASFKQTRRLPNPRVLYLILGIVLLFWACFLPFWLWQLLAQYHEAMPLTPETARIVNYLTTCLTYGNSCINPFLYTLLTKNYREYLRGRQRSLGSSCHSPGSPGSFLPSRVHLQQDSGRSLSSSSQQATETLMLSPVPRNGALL
Assay: Rat UII Calcium Mobilization FLIPR Assay
Format: cell-based
Conditions: CHO, 5 min, 50 μM compound; agonist-induced Ca2+ mobilization (FLIPR), CHO cells with rat UII receptor; read-out: % I @ 50
Excerpt: To derive these cells, the complete coding sequence of rat U-II (Genbank Accession No. U32673) was amplified by nested PCR from rat heart marathon-Ready cDNA. […] The PCR products were cloned into pcDNA3 (Invitrogen) digested with EcoR I and Xba I. Clones containing rat U-II receptor were verified by complete sequencing of the U-II receptor insert to ensure a lack of PCR-introduced errors. The constructed vector was transfected into CHO cells by using lipofectamine (GIBCO BRL). […]
API: value field is a number in %; no unit string.

1) C#CC(c1ccccc1)N1CCN(c2cccc3c2C(=O)N(Cc2ccc(OC)c(OC)c2)C3=O)CC1 (stereo not shown) [Cpd 35] = 65
2) COc1ccc(CN2C(=O)c3cccc(N4CCN(Cc5ccccc5C#N)CC4)c3C2=O)cc1OC [Cpd 38] = 94
3) COc1ccc(CN2C(=O)c3cccc(N4CCN(Cc5ccc(Cl)cc5)CC4)c3C2=O)cc1OC [Cpd 57] = 58
4) COc1ccc(C(CCCNS(C)(=O)=O)N2C(=O)c3cccc(N4CCN([C@H](C)c5ccccc5)CC4)c3C2=O)cc1OC (stereo partly shown) [Cpd 67] = 99
5) COc1cc(CN2C(=O)c3cccc(N4CCN(C(C)C)CC4)c3C2=O)cc(OC)c1OC [Cpd 52] = 71
6) COc1cc(CN2C(=O)c3cccc(N4CCN(Cc5ccccc5)CC4)c3C2=O)cc(OC)c1OC [Cpd 34] = 94
7) COc1cc(CN2C(=O)c3cccc(N4CCN([C@H](C)c5ccccc5)CC4)c3C2=O)ccc1O [Cpd 15] = 100
8) COc1ccc(CN2C(=O)c3cccc(N4CCN([C@@H](C)c5ccccc5)CC4)c3C2=O)cc1OC [Cpd 14] = 101
9) COc1cc(CN2C(=O)c3cccc(N4CCN(CC(C)C)CC4)c3C2=O)cc(OC)c1OC [Cpd 60] = 52
10) COc1ccc(CN2C(=O)c3cccc(N4CCN(CCc5ccccc5)CC4)c3C2=O)cc1OC [Cpd 22] = 100

Assign inhibition at 50 µM to the following record: COc1ccc(CN2C(=O)c3cccc(N4CCN(C(c5ccccc5)C5CC5)CC4)c3C2=O)cc1OC (stereo not shown) [Cpd 27] 100

Assign inhibition at 50 µM to the following record: COc1ccc(CN2C(=O)c3cccc(N4CCN(Cc5cc(F)ccc5F)CC4)c3C2=O)cc1OC [Cpd 29] 95

Assign inhibition at 50 µM to the following record: COc1ccc(CN2C(=O)c3cccc(N4CCN(Cc5cccc(Cl)c5)CC4)c3C2=O)cc1OC [Cpd 44] 79

Assign inhibition at 50 µM to the following record: COc1ccc(CN2C(=O)c3cccc(N4CCN(Cc5ccccc5C)CC4)c3C2=O)cc1OC [Cpd 33] 97

Assign inhibition at 50 µM to the following record: COc1ccc(CN2C(=O)c3cccc(C4=CC5CCC(C4)N5Cc4ccccc4)c3C2=O)cc1OC (stereo not shown) [Cpd 50] 77

Assign inhibition at 50 µM to the following record: COc1ccc([C@H](C)N2C(=O)c3cccc(N4CCN([C@H](C)c5ccccc5)CC4)c3C2=O)cc1OC [Cpd 3] 101
